Numbers sourced from patent US20230134571A1.

Molecular target: HIV Env of isolate 6540.v4.c1 (clade AC) (HIV)
Test: cell-based or functional assay
measurement-type: IC80 (µg/ml) with constrains (µg/mL)
Give the value, in units of µg/mL, as a plain number.

Tell me IC80 (µg/ml) with constrains reported for ePGDM13 (antibody, V domains shown) VH: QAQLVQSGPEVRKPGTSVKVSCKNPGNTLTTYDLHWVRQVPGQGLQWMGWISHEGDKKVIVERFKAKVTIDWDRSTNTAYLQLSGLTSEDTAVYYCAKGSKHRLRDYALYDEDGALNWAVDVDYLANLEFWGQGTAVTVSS VL: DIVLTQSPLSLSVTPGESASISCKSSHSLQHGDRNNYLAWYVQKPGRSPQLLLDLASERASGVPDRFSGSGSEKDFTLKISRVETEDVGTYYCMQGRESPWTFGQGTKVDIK
0.06

Tell me IC80 (µg/ml) with constrains reported for PGDM1400 (antibody, V domains shown) VH: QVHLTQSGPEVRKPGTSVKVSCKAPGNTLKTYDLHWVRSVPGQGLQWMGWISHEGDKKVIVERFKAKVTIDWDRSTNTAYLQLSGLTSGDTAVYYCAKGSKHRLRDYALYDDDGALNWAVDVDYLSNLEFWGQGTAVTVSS VL: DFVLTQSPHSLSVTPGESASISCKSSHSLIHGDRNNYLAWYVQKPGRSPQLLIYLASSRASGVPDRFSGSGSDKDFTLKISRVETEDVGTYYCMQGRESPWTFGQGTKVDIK
0.026

Tell me IC80 (µg/ml) with constrains reported for ePGDM5 (antibody, V domains shown) VH: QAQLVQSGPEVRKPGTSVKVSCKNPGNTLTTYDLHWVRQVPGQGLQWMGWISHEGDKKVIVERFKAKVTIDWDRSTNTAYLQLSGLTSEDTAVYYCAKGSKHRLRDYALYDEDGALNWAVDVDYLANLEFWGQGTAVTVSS VL: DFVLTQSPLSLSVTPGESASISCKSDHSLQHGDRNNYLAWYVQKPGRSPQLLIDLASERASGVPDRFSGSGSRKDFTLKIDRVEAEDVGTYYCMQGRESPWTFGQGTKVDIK
0.05

Tell me IC80 (µg/ml) with constrains reported for ePGDM9 (antibody, V domains shown) VH: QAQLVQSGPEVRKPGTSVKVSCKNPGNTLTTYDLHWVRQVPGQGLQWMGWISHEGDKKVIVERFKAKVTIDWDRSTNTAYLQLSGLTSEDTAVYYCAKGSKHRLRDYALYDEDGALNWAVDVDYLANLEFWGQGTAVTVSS VL: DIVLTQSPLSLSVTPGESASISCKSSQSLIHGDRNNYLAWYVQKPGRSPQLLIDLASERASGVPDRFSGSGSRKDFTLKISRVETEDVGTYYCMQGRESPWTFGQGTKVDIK
0.031
